Give MIC for every item shown.
Structures can show the parent of a compound that is named as a salt.
Quick reminder: number only, in µg/mL, skip the unit.

For `CN[C@@H]1[C@H](O)[C@H](NC)[C@H]2O[C@]3(O)[C@H](O[C@@H]2[C@H]1O)O[C@H](C)C[C@@]3(O)CNCc1cccnc1` on Moraxella catarrhalis, measured MIC was 6.3

Form: item CN[C@@H]1[C@H](O)[C@H](NC)[C@H]2O[C@]3(O)[C@H](O[C@@H]2[C@H]1O)O[C@H](C)C[C@@]3(O)CNCc1cccs1 [compound 17, Trihydrochloride] ; test system Moraxella catarrhalis; MIC: 3.1

Fill in: Moraxella catarrhalis MIC for CN[C@@H]1[C@H](O)[C@H](NC)[C@H]2O[C@]3(O)[C@H](O[C@@H]2[C@H]1O)O[C@H](C)C[C@@]3(O)CNCCc1ccc(C(F)(F)F)cc1 [compound 58, Trihydrochloride] = 0.4

Summary: CN[C@@H]1[C@H](O)[C@H](NC)[C@H]2O[C@]3(O)[C@H](O[C@@H]2[C@H]1O)O[C@H](C)C[C@@]3(O)CNCCC1CCOCC1 [compound 52, Trihydrochloride] , Moraxella catarrhalis, MIC = 3.1

Result for CN[C@@H]1[C@H](O)[C@H](NC)[C@H]2O[C@]3(O)[C@H](O[C@@H]2[C@H]1O)O[C@H](C)C[C@@]3(O)CNCc1ccccc1 [compound 1, Trihydrochloride] , tested on Moraxella catarrhalis, MIC: 6.3

The measured MIC that CN[C@@H]1[C@H](O)[C@H](NC)[C@H]2O[C@]3(O)[C@H](O[C@@H]2[C@H]1O)O[C@H](C)C[C@@]3(O)CNCCc1cccs1 [compound 61, trihydrobromide] showed for Moraxella catarrhalis is 1.6

// assay Moraxella catarrhalis, entry CN[C@@H]1[C@H](O)[C@H](NC)[C@H]2O[C@]3(O)[C@H](O[C@@H]2[C@H]1O)O[C@H](C)C[C@@]3(O)CNCc1ccc(OC(F)(F)F)cc1 [compound 11, Trihydrochloride] , MIC value = 6.3

Tested system Moraxella catarrhalis; MIC recorded for CN[C@@H]1[C@H](O)[C@H](NC)[C@H]2O[C@]3(O)[C@H](O[C@@H]2[C@H]1O)O[C@H](C)C[C@@]3(O)CNCc1ccccc1F [compound 14, Trihydrochloride] was 1.6

Lab note: compound CN[C@@H]1[C@H](O)[C@H](NC)[C@H]2O[C@]3(O)[C@H](O[C@@H]2[C@H]1O)O[C@H](C)C[C@@]3(O)CNCc1ccccc1Cl [compound 56, Trihydrobromide] tested on Moraxella catarrhalis; recorded MIC was 100

Record for `CN[C@@H]1[C@H](O)[C@H](NC)[C@H]2O[C@]3(O)[C@H](O[C@@H]2[C@H]1O)O[C@H](C)C[C@@]3(O)CNCCc1cnccn1` under target or system Moraxella catarrhalis: MIC reported as 6.3

Short answer on Moraxella catarrhalis for `CN[C@@H]1[C@H](O)[C@H](NC)[C@H]2O[C@]3(O)[C@H](O[C@@H]2[C@H]1O)O[C@H](C)C[C@@]3(O)CNCc1cccc(C)n1` , MIC: 3.1

Tested system Moraxella catarrhalis; MIC recorded for CN[C@@H]1[C@H](O)[C@H](NC)[C@H]2O[C@]3(O)[C@H](O[C@@H]2[C@H]1O)O[C@H](C)C[C@@]3(O)CNCC(C)c1ccccc1 (stereo partly shown) was 3.1

Entry CN[C@@H]1[C@H](O)[C@H](NC)[C@H]2O[C@]3(O)[C@H](O[C@@H]2[C@H]1O)O[C@H](C)C[C@@]3(O)CNCc1ccc(F)cc1 [compound 2, Trihydrochloride] , tested on Moraxella catarrhalis, has a reported MIC of 3.1

With Moraxella catarrhalis as the test system, `CN[C@@H]1[C@H](O)[C@H](NC)[C@H]2O[C@]3(O)[C@H](O[C@@H]2[C@H]1O)O[C@H](C)C[C@@]3(O)CNCCN1CCOCC1` showed MIC of 3.1

Value (MIC, Moraxella catarrhalis) for record CN[C@@H]1[C@H](O)[C@H](NC)[C@H]2O[C@]3(O)[C@H](O[C@@H]2[C@H]1O)O[C@H](C)C[C@@]3(O)CNCc1cccc(F)c1 [compound 15, Trihydrochloride] = 1.6

// assay Moraxella catarrhalis, entry CN[C@@H]1[C@H](O)[C@H](NC)[C@H]2O[C@]3(O)[C@H](O[C@@H]2[C@H]1O)O[C@H](C)C[C@@]3(O)CNCCCc1ccccc1 [compound 13, Trihydrochloride] , MIC value = 0.4

For `CN[C@@H]1[C@H](O)[C@H](NC)[C@H]2O[C@]3(O)[C@H](O[C@@H]2[C@H]1O)O[C@H](C)C[C@@]3(O)CNCc1nccs1` on Moraxella catarrhalis, measured MIC was 12.5

The reported numbers originate from patent US10266544B2.
